Where do these numbers come from? They come from paper PMC9605988.

# systemUnderTest: T1, preformed AF488-Bub1^CD1:pMad1^CTD complex (Mad1^CTD phosphorylated at Thr716) (UniProt Q9Y6D9 597-718, phosphothreonine at 716 (pThr716) | Aurora Fluor 488 (AF488) on the N-terminal Cys; phosphoserine (pSer459); phosphothreonine (pThr461))
# T1 construct: Mad1 C-terminal domain (Mad1^CTD), residues 597-718; as m2; added N-terminal Cys (carries AF488) and Trp; as m7; Bub1 conserved domain 1 (CD1) peptide; source: mixed from purified pMad1^CTD and synthetic peptide (20 nM: 2.1 µM); copies: 2 + 1
# T1 sequence 1: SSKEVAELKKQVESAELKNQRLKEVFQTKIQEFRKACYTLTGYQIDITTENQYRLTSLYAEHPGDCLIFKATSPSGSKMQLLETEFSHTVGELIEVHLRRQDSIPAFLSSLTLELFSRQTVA
# T1 sequence 2: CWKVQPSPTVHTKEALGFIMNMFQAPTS
# assay: fluorescence polarisation; fluorescence anisotropy; Cdc20^N twofold series (100 μM to 6 nM, mixed 1:1) titrated into preformed AF488-Bub1^CD1:Mad1^CTD (20 nM: 2.1 µM); 25 mM HEPES pH 7.75, 1 mM TCEP, 100 mM NaCl, 0.05% Tween-20; 25 °C
# appliedConditions: both partners purified
resultType: Kd
Number first, unit second: that is the form wanted.

1) Cdc20^N RRK/SSS mutant (Arg27, Arg30, Lys31 to Ser) (domain or fragment, human, UniProt Q12834 1-73, looked up, human Cdc20, residues 1-73; The purification (with tag cleavage) is told for Cdc20^N; likely the same for the mutant; source: site-directed mutant of the Cdc20^N construct, purified) MAQFAFESDLHSLLQLDAPIPNAPPASWQSSAKEAAGPAPSPMRAANRSHSAGRTPGRTPGKSSSKVQTTPSK :: 23 µM

Turning now to a further binder:
Tell me measured Kd for Cdc20^N (N-terminal truncation of Cdc20, residues 1-73) (domain or fragment, human, UniProt Q12834 1-73, looked up, human Cdc20, residues 1-73; also called Cdc20^1–73; wild-type Cdc20^N; source: E. coli Rosetta 2 (DE3), purified (TALON, TEV cleavage, HisTrap, Resource S, Superdex 75); not shown: His6, N-terminal, cleaved; MBP, N-terminal, cleaved) MAQFAFESDLHSLLQLDAPIPNAPPARWQRKAKEAAGPAPSPMRAANRSHSAGRTPGRTPGKSSSKVQTTPSK please.
4.8 µM
